- System: IL-6
- experiment: LPS-stimulated PBMC cytokine production, multiplex cytokine analysis: IL-6
- Type: cell-based, human
- condition_parameters: Homo sapiens; PBMC 2×10^6 cells/ml, compound 1 hour, then 1 ng/ml LPS 18 hours
- Source text: Peripheral blood mononuclear cells (PBMCs) were isolated from the blood of healthy human donors by Ficoll cell separation. […] Supernatant samples were subjected to multiplex cytokine analysis (Luminex IS100 instrument) to quantify secreted levels of IL-6, IL-8, IL1-beta (IL-1β), GM-CSF, MDC, MIP-1alpha (MIP-1α), MIP-1beta (MIP-1β) and TNF-alpha (TNF-α) (see e.g. FIGS. 7A-C). […]

>  <molecule>
Cc1nc2cccc(N)c2c(=O)n1C1CCC(=O)NC1=O (stereo not shown) [Avadomide]

>  <IC50 / µM>
0.06

$$$$

---

- Test system: IL-8
- experiment: LPS-stimulated PBMC cytokine production, multiplex cytokine analysis: IL-8
- Type: cell-based, human
- condition_parameters: PBMC 2×10^6 cells/ml, compound 1 hour, then 1 ng/ml LPS 18 hours

>  <compound>
O=C1CCC(N2Cc3c(OCc4ccc(CN5CCOCC5)cc4)cccc3C2=O)C(=O)N1 (single isomer, unassigned)

>  <IC50>
> 10 µM

$$$$

---

- Tested on: IL-8
- experiment: LPS-stimulated PBMC cytokine production, multiplex cytokine analysis: IL-8
- Format: cell-based, human
- condition_parameters: Homo sapiens; PBMC 2×10^6 cells/ml, compound 1 hour, then 1 ng/ml LPS 18 hours
Reported IC50 values for a set of molecules
property_label: IC50

>  <molecule>
O=C1CC[C@H](N2Cc3c(OCc4ccc(CN5CCOCC5)cc4)cccc3C2=O)C(=O)N1 [Iberdomide]

>  <result>
> 10 µM

$$$$
>  <molecule>
Nc1cccc2c1C(=O)N(C1CCC(=O)NC1=O)C2=O (stereo not drawn) [Pomalidomide]

>  <result>
2.9 µM

$$$$
>  <molecule>
Nc1cccc2c1CN(C1CCC(=O)NC1=O)C2=O (stereo not drawn) [Lenalidomide]

>  <result>
> 10 µM

$$$$
>  <molecule>
O=C1CCC(N2Cc3c(OCc4ccc(CN5CCOCC5)cc4)cccc3C2=O)C(=O)N1 (single isomer, unassigned)

>  <result>
> 10 µM

$$$$
>  <molecule>
O=C1CCC(N2C(=O)c3ccccc3C2=O)C(=O)N1 (stereo not drawn) [Thalidomide]

>  <result>
> 10 µM

$$$$
>  <molecule>
Cc1nc2cccc(N)c2c(=O)n1C1CCC(=O)NC1=O (stereo not drawn) [Avadomide]

>  <result>
> 10 µM

$$$$
